# experimental system: Cytochrome P450 2C19 (Homo sapiens) (UniProt P33261)
# Sequence (P33261 whole entry, looked up): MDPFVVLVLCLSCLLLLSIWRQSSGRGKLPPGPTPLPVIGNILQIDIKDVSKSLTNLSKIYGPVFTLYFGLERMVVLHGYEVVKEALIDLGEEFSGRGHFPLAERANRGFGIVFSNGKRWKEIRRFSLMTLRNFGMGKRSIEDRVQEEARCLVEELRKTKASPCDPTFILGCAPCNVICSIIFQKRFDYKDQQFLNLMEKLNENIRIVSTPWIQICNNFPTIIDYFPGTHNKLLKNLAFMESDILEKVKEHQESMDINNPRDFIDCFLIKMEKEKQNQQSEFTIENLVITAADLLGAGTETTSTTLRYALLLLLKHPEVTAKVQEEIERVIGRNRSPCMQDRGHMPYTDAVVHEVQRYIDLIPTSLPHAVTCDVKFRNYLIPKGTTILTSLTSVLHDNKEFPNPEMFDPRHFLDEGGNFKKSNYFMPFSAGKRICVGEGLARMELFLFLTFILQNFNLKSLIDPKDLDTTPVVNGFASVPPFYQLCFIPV
# experimental details: Cytochrome panel assay with activity outcomes
# assay conditions: recombinant CYP, pro-luciferin dealkylation, luminescence, p450-cyp2c19; series mostly up to 57.1 µM
Out of some 16,000 compounds screened, about 5,800 (36%) were called active. Another 23% or so got no clear call; they are omitted. The list shows a part of the results.

compound | AC50
CC(C)(C)C(=O)NC(=C(Cl)Cl)P(=O)(O)O | inactive
NC(=NCCC[C@H](N)C(=O)O)NO | inactive
CN(C)CC(O)COc1cccc(OCC(O)CN(C)C)c1 (centres undefined) | inactive
COc1ccccc1NC(=O)C1=C(C)Nc2nc(-c3ccc(N(C)C)cc3)nn2C1c1ccncc1 (centres undefined) | 14.1 µM (active)
